Values were extracted from ChEMBL document CHEMBL4840382.

measuredOn: UniProt:P42858
Sequence (P42858 whole entry): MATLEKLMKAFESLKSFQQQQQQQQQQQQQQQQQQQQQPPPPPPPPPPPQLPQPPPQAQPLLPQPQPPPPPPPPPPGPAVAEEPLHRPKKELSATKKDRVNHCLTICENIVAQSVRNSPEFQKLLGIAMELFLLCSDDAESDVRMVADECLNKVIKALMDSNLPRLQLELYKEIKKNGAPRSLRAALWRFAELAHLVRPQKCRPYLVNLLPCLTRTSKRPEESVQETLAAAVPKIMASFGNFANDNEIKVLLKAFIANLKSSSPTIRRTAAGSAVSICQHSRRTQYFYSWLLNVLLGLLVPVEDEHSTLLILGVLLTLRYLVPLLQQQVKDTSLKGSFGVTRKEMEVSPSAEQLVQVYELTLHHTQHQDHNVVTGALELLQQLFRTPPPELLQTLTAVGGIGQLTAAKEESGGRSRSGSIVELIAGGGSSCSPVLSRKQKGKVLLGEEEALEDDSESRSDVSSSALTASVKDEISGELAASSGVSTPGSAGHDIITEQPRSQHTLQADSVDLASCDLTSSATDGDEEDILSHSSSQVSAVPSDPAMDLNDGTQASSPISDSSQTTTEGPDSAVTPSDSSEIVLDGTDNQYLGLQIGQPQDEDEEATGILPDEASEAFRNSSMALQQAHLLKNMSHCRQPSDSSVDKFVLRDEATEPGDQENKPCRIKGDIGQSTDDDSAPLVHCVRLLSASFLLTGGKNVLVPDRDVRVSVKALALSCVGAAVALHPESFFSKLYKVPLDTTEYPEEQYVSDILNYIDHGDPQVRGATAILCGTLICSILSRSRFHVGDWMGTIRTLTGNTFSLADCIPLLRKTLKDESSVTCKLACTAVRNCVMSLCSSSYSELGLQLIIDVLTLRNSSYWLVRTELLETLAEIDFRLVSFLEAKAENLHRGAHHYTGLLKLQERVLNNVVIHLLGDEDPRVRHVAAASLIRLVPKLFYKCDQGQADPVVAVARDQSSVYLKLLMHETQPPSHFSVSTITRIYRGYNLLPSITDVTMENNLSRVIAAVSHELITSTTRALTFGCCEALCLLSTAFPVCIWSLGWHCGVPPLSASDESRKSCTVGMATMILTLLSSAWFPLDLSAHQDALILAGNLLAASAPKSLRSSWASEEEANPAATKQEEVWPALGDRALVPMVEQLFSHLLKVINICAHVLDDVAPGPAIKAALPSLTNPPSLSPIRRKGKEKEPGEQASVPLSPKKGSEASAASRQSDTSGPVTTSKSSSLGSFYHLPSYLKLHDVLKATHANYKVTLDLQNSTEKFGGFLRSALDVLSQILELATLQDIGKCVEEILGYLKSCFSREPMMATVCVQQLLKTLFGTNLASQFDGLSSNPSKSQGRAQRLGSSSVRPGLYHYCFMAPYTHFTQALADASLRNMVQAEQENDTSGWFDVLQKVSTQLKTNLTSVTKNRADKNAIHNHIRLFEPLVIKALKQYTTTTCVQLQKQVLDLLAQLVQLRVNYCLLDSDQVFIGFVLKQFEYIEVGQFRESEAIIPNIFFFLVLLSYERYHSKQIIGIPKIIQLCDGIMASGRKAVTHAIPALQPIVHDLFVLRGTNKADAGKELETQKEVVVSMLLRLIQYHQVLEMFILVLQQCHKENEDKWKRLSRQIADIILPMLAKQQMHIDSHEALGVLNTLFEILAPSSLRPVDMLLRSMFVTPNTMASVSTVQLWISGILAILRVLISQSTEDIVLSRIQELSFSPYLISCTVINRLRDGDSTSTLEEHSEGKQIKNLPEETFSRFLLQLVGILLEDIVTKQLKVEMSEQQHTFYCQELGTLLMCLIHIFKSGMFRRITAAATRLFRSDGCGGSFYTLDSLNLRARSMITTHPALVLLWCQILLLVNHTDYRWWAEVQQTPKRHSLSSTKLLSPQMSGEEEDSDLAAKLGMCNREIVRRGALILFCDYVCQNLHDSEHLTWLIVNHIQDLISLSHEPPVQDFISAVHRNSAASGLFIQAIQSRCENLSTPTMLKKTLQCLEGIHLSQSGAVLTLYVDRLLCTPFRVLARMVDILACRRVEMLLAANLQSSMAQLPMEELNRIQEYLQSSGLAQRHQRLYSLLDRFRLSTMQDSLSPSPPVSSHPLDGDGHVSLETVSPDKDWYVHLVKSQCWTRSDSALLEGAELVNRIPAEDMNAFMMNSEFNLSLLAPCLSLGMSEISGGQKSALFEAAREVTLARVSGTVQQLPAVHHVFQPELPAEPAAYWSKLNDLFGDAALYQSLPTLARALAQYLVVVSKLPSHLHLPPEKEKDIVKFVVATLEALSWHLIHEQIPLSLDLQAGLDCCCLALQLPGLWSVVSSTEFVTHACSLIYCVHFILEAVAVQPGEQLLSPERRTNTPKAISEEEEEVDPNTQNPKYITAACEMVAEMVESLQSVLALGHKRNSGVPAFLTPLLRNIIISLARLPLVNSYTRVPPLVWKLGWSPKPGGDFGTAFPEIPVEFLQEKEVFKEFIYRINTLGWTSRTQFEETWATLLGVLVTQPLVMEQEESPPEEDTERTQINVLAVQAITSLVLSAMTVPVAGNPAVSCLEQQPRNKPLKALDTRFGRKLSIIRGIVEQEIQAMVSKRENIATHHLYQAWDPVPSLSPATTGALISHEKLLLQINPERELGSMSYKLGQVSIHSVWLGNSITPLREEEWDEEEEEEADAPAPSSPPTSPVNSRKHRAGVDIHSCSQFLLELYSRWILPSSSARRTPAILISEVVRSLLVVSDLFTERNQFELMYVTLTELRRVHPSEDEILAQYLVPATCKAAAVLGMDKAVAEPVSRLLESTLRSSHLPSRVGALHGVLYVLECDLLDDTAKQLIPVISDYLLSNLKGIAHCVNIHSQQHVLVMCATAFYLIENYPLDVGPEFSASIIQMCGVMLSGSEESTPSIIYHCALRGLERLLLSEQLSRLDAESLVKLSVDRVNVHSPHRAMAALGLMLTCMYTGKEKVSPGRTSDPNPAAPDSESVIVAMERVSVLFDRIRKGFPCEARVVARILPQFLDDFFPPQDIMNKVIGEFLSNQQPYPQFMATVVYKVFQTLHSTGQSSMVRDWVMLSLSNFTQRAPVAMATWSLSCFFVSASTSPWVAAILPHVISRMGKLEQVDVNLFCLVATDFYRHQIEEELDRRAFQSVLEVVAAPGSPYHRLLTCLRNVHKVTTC
protocolDescription: Inhibition of endogenous Huntingtin protein (unknown origin) incubated for overnight in presence of MW1/MAB2166 monoclonal antibody by ELISA-based MSD electrochemiluminescence assay
Assign pIC50 to each entry below.
Friendly reminder that pIC50 comes from taking -log10 of the concentration in mol/L.

Entry Cn1cc2cc(-c3ccc(-c4cnc(N5CCNC(CO)C5)nn4)c(O)c3)cc(F)c2n1 (stereo unspecified) — recorded pIC50 = 8.80

Lab book: pIC50 of CCC1CN(c2ncc(-c3ccc(-c4cc(F)c5nc(C)cn5c4)cc3O)nn2)CCN1 (stereo unspecified) noted as 8.66

Sure, the documented pIC50 for Oc1cc(-c2c[nH]nc2F)ccc1-c1cnc(N2CCN[C@@H](C3CC3)C2)nn1 is 8.68

According to the records, this compound Cc1cn2cc(-c3ccc(-c4cnc(N5CCN[C@@H](C(C)C)C5)nn4)c(O)c3)ncc2n1 displays pIC50 of 8.64

get_value(item= Cn1nc2cc(-c3ccc(-c4cnc(N5CCN[C@@H](C6CC6)C5)nn4)c(O)c3)cnc2n1 , readout=pIC50) returns 8.77

What the record says about CC1CN(c2ncc(-c3ccc(-c4cc(F)c5nn(C)cc5c4)cc3O)nn2)CCN1 (stereo unspecified) : pIC50 is 8.68
